System: UMC-11
Experiment: relative viability (nuclei count vs DMSO), 5 days (fraction); higher = more cells survive
Details: first compound 0.4 µM
Recorded measurements of relative viability, one per entry
Give the figure only, with no unit attached.

Solved cases (3 shown):
Noted for Cc1sc2c(c1C)C(c1ccc(Cl)cc1)=N[C@@H](CC(=O)OC(C)(C)C)c1nnc(C)n1-2 [JQ1] + C[C@@H](Oc1cc(-c2cnn(C3CCNCC3)c2)cnc1N)c1c(Cl)ccc(F)c1Cl [Crizotinib] (partner 1 µM) : its relative viability reads 0.345

Noted for Cc1sc2c(c1C)C(c1ccc(Cl)cc1)=N[C@@H](CC(=O)OC(C)(C)C)c1nnc(C)n1-2 [JQ1] + CC1(C)CCC(c2ccc(Cl)cc2)=C(CN2CCN(c3ccc(C(=O)NS(=O)(=O)c4ccc(N[C@H](CCN5CCOCC5)CSc5ccccc5)c(S(=O)(=O)C(F)(F)F)c4)cc3)CC2)C1 [Navitoclax] (partner 0.5 µM) : its relative viability reads 0.205

Noted for Cc1sc2c(c1C)C(c1ccc(Cl)cc1)=N[C@@H](CC(=O)OC(C)(C)C)c1nnc(C)n1-2 [JQ1] + O=C(CCCCCCC(=O)Nc1ccccc1)NO [Vorinostat] (partner 1 µM) : its relative viability reads 0.223

Shift focus to the following entry.
Noted for Cc1sc2c(c1C)C(c1ccc(Cl)cc1)=N[C@@H](CC(=O)OC(C)(C)C)c1nnc(C)n1-2 [JQ1] + CC(=O)c1c(C)c2cnc(Nc3ccc(N4CCNCC4)cn3)nc2n(C2CCCC2)c1=O [Palbociclib] (partner 0.5 µM) : its relative viability reads 0.227

###

Tested on: HOP-62
Assay: relative viability (nuclei count vs DMSO), 5 days (fraction); higher = more cells survive
Conditions: first compound 0.1581 µM
property name: relative viability
Give the figure only, with no unit attached.

Solved cases (2 shown):
Noted for COc1cc2nccc(Oc3ccc(NC(=O)Nc4cc(C)on4)c(Cl)c3)c2cc1OC [Tivozanib] + N=C(N)NC(=N)NCCc1ccccc1 [Phenformin] (partner 250 µM) : its relative viability reads 0.704

Noted for Nc1ccn([C@@H]2O[C@H](CO)[C@@H](O)[C@@H]2O)c(=O)n1 [Cytarabine] + CC(=O)c1c(C)c2cnc(Nc3ccc(N4CCNCC4)cn3)nc2n(C2CCCC2)c1=O [Palbociclib] (partner 0.5 µM) : its relative viability reads 0.139

Shift focus to the following entry.
Noted for Nc1ccn([C@@H]2O[C@H](CO)[C@@H](O)[C@@H]2O)c(=O)n1 [Cytarabine] + CS(=O)(=O)N1CCN(Cc2cc3nc(-c4cccc5[nH]ncc45)nc(N4CCOCC4)c3s2)CC1 [Pictilisib] (partner 1 µM) : its relative viability reads 0.118

###

Test system: NCI-H1975
Assay: relative viability (nuclei count vs DMSO), 5 days (fraction); higher = more cells survive
Conditions: first compound 0.1265 µM
# strict inequality: relative viability < 0.3 yields true (1), everything else yields false (0)

Previously resolved entries follow.
// query For Cc1sc2c(c1C)C(c1ccc(Cl)cc1)=N[C@@H](CC(=O)OC(C)(C)C)c1nnc(C)n1-2 [JQ1] + O=C(c1cc(Cc2n[nH]c(=O)c3ccccc23)ccc1F)N1CCN(C(=O)C2CC2)CC1 [Olaparib] (partner 8 µM) , is the recorded relative viability below the cut-off of 0.3?
// result false (0)

// query For Cc1sc2c(c1C)C(c1ccc(Cl)cc1)=N[C@@H](CC(=O)OC(C)(C)C)c1nnc(C)n1-2 [JQ1] + CS(=O)(=O)N1CCN(Cc2cc3nc(-c4cccc5[nH]ncc45)nc(N4CCOCC4)c3s2)CC1 [Pictilisib] (partner 1 µM) , is the recorded relative viability below the cut-off of 0.3?
// result true (1)

// query For Cc1sc2c(c1C)C(c1ccc(Cl)cc1)=N[C@@H](CC(=O)OC(C)(C)C)c1nnc(C)n1-2 [JQ1] + CC(C)C[C@H](NC(=O)[C@H](Cc1ccccc1)NC(=O)c1cnccn1)B(O)O [Bortezomib] (partner 0.002 µM) , is the recorded relative viability below the cut-off of 0.3?
// result true (1)

// query For Cc1sc2c(c1C)C(c1ccc(Cl)cc1)=N[C@@H](CC(=O)OC(C)(C)C)c1nnc(C)n1-2 [JQ1] + NC(=O)Nc1cc(-c2cccc(F)c2)sc1C(=O)N[C@H]1CCCNC1 [AZD7762] (partner 0.2 µM) , is the recorded relative viability below the cut-off of 0.3?
// result false (0)

Further cases:
// query For Cc1sc2c(c1C)C(c1ccc(Cl)cc1)=N[C@@H](CC(=O)OC(C)(C)C)c1nnc(C)n1-2 [JQ1] + Nc1nc2[nH]cc(CCc3ccc(C(=O)N[C@@H](CCC(=O)O)C(=O)O)cc3)c2c(=O)[nH]1 [Pemetrexed] (partner 0.2 µM) , is the recorded relative viability below the cut-off of 0.3?
// result true (1)

###

Tested on: NCI-H1734
Assay: relative viability (nuclei count vs DMSO), 5 days (fraction); higher = more cells survive
Conditions: first compound 0.02 µM
# strict inequality: relative viability < 0.2 yields label 1, everything else yields label 0

Previously resolved entries follow.
// query For CC(=O)O[C@@]12CO[C@@H]1C[C@H](O)[C@@]1(C)C(=O)[C@H](O)C3=C(C)[C@@H](OC(=O)[C@H](O)[C@@H](NC(=O)OC(C)(C)C)c4ccccc4)C[C@@](O)([C@@H](OC(=O)c4ccccc4)[C@H]21)C3(C)C [Docetaxel] + Nc1nc2[nH]cc(CCc3ccc(C(=O)N[C@@H](CCC(=O)O)C(=O)O)cc3)c2c(=O)[nH]1 [Pemetrexed] (partner 0.2 µM) , is the recorded relative viability below the cut-off of 0.2?
// result label 0

// query For CC(=O)O[C@@]12CO[C@@H]1C[C@H](O)[C@@]1(C)C(=O)[C@H](O)C3=C(C)[C@@H](OC(=O)[C@H](O)[C@@H](NC(=O)OC(C)(C)C)c4ccccc4)C[C@@](O)([C@@H](OC(=O)c4ccccc4)[C@H]21)C3(C)C [Docetaxel] + NC(=O)Nc1cc(-c2cccc(F)c2)sc1C(=O)N[C@H]1CCCNC1 [AZD7762] (partner 0.2 µM) , is the recorded relative viability below the cut-off of 0.2?
// result label 1

Further cases:
// query For CC(=O)O[C@@]12CO[C@@H]1C[C@H](O)[C@@]1(C)C(=O)[C@H](O)C3=C(C)[C@@H](OC(=O)[C@H](O)[C@@H](NC(=O)OC(C)(C)C)c4ccccc4)C[C@@](O)([C@@H](OC(=O)c4ccccc4)[C@H]21)C3(C)C [Docetaxel] + CS(=O)(=O)N1CCN(Cc2cc3nc(-c4cccc5[nH]ncc45)nc(N4CCOCC4)c3s2)CC1 [Pictilisib] (partner 1 µM) , is the recorded relative viability below the cut-off of 0.2?
// result label 0

// query For CC(=O)O[C@@]12CO[C@@H]1C[C@H](O)[C@@]1(C)C(=O)[C@H](O)C3=C(C)[C@@H](OC(=O)[C@H](O)[C@@H](NC(=O)OC(C)(C)C)c4ccccc4)C[C@@](O)([C@@H](OC(=O)c4ccccc4)[C@H]21)C3(C)C [Docetaxel] + CCNC(=O)c1noc(-c2cc(C(C)C)c(O)cc2O)c1-c1ccc(CN2CCOCC2)cc1 [Luminespib] (partner 0.01 µM) , is the recorded relative viability below the cut-off of 0.2?
// result label 1

// query For CC(=O)O[C@@]12CO[C@@H]1C[C@H](O)[C@@]1(C)C(=O)[C@H](O)C3=C(C)[C@@H](OC(=O)[C@H](O)[C@@H](NC(=O)OC(C)(C)C)c4ccccc4)C[C@@](O)([C@@H](OC(=O)c4ccccc4)[C@H]21)C3(C)C [Docetaxel] + CS(=O)(=O)CCNCc1ccc(-c2ccc3ncnc(Nc4ccc(OCc5cccc(F)c5)c(Cl)c4)c3c2)o1 [Lapatinib] (partner 2 µM) , is the recorded relative viability below the cut-off of 0.2?
// result label 0

###

Test system: NCI-H838
Assay: relative viability (nuclei count vs DMSO), 5 days (fraction); higher = more cells survive
Conditions: first compound 0.04 µM
property name: relative viability
Give the figure only, with no unit attached.

Solved cases (3 shown):
Noted for Cc1sc2c(c1C)C(c1ccc(Cl)cc1)=N[C@@H](CC(=O)OC(C)(C)C)c1nnc(C)n1-2 [JQ1] + Cc1nc(NC(=O)N2CCC[C@H]2C(N)=O)sc1-c1ccnc(C(C)(C)C(F)(F)F)c1 [Alpelisib] (partner 2 µM) : its relative viability reads 1.03

Noted for Cc1sc2c(c1C)C(c1ccc(Cl)cc1)=N[C@@H](CC(=O)OC(C)(C)C)c1nnc(C)n1-2 [JQ1] + CC(=O)Nc1cccc(-n2c(=O)n(C3CC3)c(=O)c3c(Nc4ccc(I)cc4F)n(C)c(=O)c(C)c32)c1 [Trametinib] (partner 0.02 µM) : its relative viability reads 0.521

Noted for Cc1sc2c(c1C)C(c1ccc(Cl)cc1)=N[C@@H](CC(=O)OC(C)(C)C)c1nnc(C)n1-2 [JQ1] + C[C@]1(O)C[C@@H](c2nc(-c3ccc4ccc(-c5ccccc5)nc4c3)c3c(N)nccn32)C1 [Linsitinib] (partner 1 µM) : its relative viability reads 0.954

Further cases:
Noted for Cc1sc2c(c1C)C(c1ccc(Cl)cc1)=N[C@@H](CC(=O)OC(C)(C)C)c1nnc(C)n1-2 [JQ1] + COc1cc2c(Oc3ccc(NC(=O)C4(C(=O)Nc5ccc(F)cc5)CC4)cc3F)ccnc2cc1OCCCN1CCOCC1 [Foretinib] (partner 0.25 µM) : its relative viability reads 1.08

Noted for Cc1sc2c(c1C)C(c1ccc(Cl)cc1)=N[C@@H](CC(=O)OC(C)(C)C)c1nnc(C)n1-2 [JQ1] + Cc1nc(Nc2ncc(C(=O)Nc3c(C)cccc3Cl)s2)cc(N2CCN(CCO)CC2)n1 [Dasatinib] (partner 0.075 µM) : its relative viability reads 0.294

All values here come from the supplement of paper PMC10307832.
